meta.source: patent US20190119282A1

# Lookup of reported IC50 keyed by entry
Biological target: PAR2 (HT-29 cells, trypsin activation) (Homo sapiens, UniProt P55085)
Construct: host or cells: HT-29 cells
Sequence (P55085 26-397): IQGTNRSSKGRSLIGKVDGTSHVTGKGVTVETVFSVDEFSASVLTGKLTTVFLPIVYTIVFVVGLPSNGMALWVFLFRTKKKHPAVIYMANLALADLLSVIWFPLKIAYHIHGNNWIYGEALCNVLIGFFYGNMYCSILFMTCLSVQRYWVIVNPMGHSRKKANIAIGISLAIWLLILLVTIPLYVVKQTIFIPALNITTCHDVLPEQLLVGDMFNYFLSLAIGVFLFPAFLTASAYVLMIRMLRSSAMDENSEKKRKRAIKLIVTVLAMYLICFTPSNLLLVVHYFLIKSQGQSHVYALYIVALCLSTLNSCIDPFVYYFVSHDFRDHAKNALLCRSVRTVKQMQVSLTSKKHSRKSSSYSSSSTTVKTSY
Assay: Ca FLIPR TETRA assay, ANTAGONIST mode, stimulation with 3.1 U/mL trypsin
Format: cell-based
Conditions: HT-29 cells, antagonist mode, stimulation with 3.1 U/mL trypsin
value-type: IC50 (nM)

molecule="CC(C)(C)c1cc(C2CCC(F)(F)CC2)nn2cc(C(=O)N3CCN(c4cn[nH]c4)C(=O)C3(C)C)nc12 [Compound I-429]" value_type=IC50 endpoint_unit=nM reported_measurement=3.3
molecule="CC(C)c1cc(-c2ccc(F)cc2)nn2cc(C(=O)N3CCN(C(=O)c4ccnnc4)CC3(C)C)nc12 [Compound I-306]" value_type=IC50 endpoint_unit=nM reported_measurement=185
molecule="CC1(C)CN(C(=O)c2nc[nH]n2)CCN1C(=O)c1cn2nc(-c3ccc(F)cc3)cc(C(F)(F)F)c2n1 [Compound I-269]" value_type=IC50 endpoint_unit=nM reported_measurement=120
molecule="Cc1ccc(-c2cc(C(C)(C)C)c3nc(C(=O)N4CCNC(=O)C4(C)C)cn3n2)cc1F [Compound I-298]" value_type=IC50 endpoint_unit=nM reported_measurement=1.8
molecule="Cc1n[nH]cc1C(=O)N1CCN(C(=O)c2cn3nc(-c4ccc(F)cc4)cc(C(C)(C)C)c3n2)C(C)(C)C1 [Compound I-292]" value_type=IC50 endpoint_unit=nM reported_measurement=2.2
molecule="CC(C)(C)c1cc(-c2ccc(F)cc2)nn2cc(C(=O)N3CCN(C(=O)c4ncccn4)CC3(C)C)nc12 [Compound I-285]" value_type=IC50 endpoint_unit=nM reported_measurement=2.6
molecule="Cc1cc(-c2cc(C(C)(C)C)c3nc(C(=O)N4CCN(C(=O)c5ccccn5)CC4(C)C)cn3n2)ccc1F [Compound I-386]" value_type=IC50 endpoint_unit=nM reported_measurement=2.6

====

# pIC50 per record follows
Molecular target: PAR2 (HT-29 cells, trypsin activation) (Homo sapiens)
Construct: host or cells: HT-29 cells
Experiment: Ca FLIPR TETRA assay, ANTAGONIST mode, stimulation with 3.1 U/mL trypsin
Assay type: cell-based
Conditions: HT-29 cells, antagonist mode, stimulation with 3.1 U/mL trypsin
pIC50: −log10 of the molar value.
value-type: pIC50

line_notation=CC(C)c1cc(-c2ccc(F)cc2)nn2cc(C(=O)N3CCN(C(=O)c4cn[nH]c4)CC3(C)C)nc12 value_type=pIC50 reported_measurement=8.23
line_notation=CC(C)(C)c1cc(-c2ccc(F)cc2)nn2cc(C(=O)N3CCN(C(F)F)C(=O)C3(C)C)nc12 value_type=pIC50 reported_measurement=6.99
line_notation=CC(C)c1cc(-c2ccc(F)cc2)nn2cc(C(=O)N3CCN(C(=O)c4c[nH]cn4)CC3(C)C)nc12 value_type=pIC50 reported_measurement=7.92
line_notation=CC(C)(C)c1cc(-c2ccc(F)cc2)nn2cc(C(=O)N3CCNCC3(C)C)nc12 value_type=pIC50 reported_measurement=6.24
line_notation=CC(C)c1cc(-c2ccc(F)c(Cl)c2)nn2cc(C(=O)N3CCN(C(=O)[C@H]4C[C@](O)(C(F)(F)F)C4)CC3(C)C)nc12 value_type=pIC50 reported_measurement=9.40
line_notation=Cc1ccc(-c2cc(C(C)(C)C)c3nc(C(=O)N4CCN(C(=O)c5nnc(C)o5)CC4(C)C)cn3n2)cc1 value_type=pIC50 reported_measurement=8.82
line_notation=Cc1nnc(C(=O)N2CCN(C(=O)c3cn4nc(-c5ccc(F)cc5)cc(C(C)(C)C)c4n3)C(C)(C)C2)o1 value_type=pIC50 reported_measurement=8.74
line_notation=CC(C)c1cc(-c2ccc(F)c(Cl)c2)nn2cc(C(=O)N3CCN(C(=O)[C@H]4C[C@@](C)(O)C4)CC3(C)C)nc12 value_type=pIC50 reported_measurement=8.57
line_notation=CC(C)(C)c1cc(-c2ccc(Cl)cc2)nn2cc(C(=O)N3CCN(C(=O)[C@H]4CC[C@@H](C(=O)O)CC4)CC3(C)C)nc12 value_type=pIC50 reported_measurement=9.70
line_notation=CC(C)(O)CC(=O)N1CCN(C(=O)c2cn3nc(-c4ccc(F)cc4)cc(C(C)(C)C)c3n2)C(C)(C)C1 value_type=pIC50 reported_measurement=8.60
line_notation=CC(C)c1cc(-c2ccc(F)c(Cl)c2)nn2cc(C(=O)N3CCNC(=O)C3(C)C)nc12 value_type=pIC50 reported_measurement=8.55
line_notation=CC(C)(C)c1cc(-c2ccc(F)cc2)nn2cc(C(=O)N3CCN(C(=O)[C@H]4CC[C@H](C(=O)O)CC4)CC3(C)C)nc12 value_type=pIC50 reported_measurement=7.86
line_notation=CC(C)c1cc(-c2ccc(F)c(Cl)c2)nn2cc(C(=O)N3CCN(C(=O)[C@H]4CC[C@@H](C(=O)O)CC4)CC3(C)C)nc12 value_type=pIC50 reported_measurement=8.30
